composite z-score reference
- Subject Of Test: Follistatin (Homo sapiens) (UniProt P19883)
- Sequence (P19883 whole entry, looked up): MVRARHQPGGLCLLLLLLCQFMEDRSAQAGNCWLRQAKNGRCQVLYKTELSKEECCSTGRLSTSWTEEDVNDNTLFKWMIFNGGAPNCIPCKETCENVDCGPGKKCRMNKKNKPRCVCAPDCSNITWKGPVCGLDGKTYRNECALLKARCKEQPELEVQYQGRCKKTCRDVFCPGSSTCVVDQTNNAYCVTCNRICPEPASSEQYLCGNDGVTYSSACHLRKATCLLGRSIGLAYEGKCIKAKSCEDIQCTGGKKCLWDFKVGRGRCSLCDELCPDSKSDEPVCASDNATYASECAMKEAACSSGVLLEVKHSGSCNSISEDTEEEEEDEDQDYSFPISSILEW
- Method Notes: follistatin binders on small-molecule microarrays, primary screen, biochemical, small-molecule microarray, 635/667 nm fluorescence (AID 1132)
- Experimental Conditions: FST binding, 635 nm fluorescence, higher = more signal

Worked set:
{"Compound": "COCC(=C=CC[C@H](O)c1cccc(OCCO)c1)C[C@H](O)COCc1ccccc1", "Result": 1.21}
{"Compound": "CN1C=C(C(=O)OCCS(C)(=O)=O)C(C(=O)OCCS(C)(=O)=O)=CC(c2ccc(CO)cc2)=CC1c1cccs1 (centres undefined)", "Result": 0.793}
{"Compound": "CCCCC(=O)N(CCN1CCOCC1)[C@@H]1CC(C(=O)NCCO)=C[C@H](Oc2c(I)cc(CO)cc2OC)[C@H]1O", "Result": 0.328}

Switching to the query record.
Prompt: Find composite z-score (Follistatin (Homo sapiens) (UniProt P19883)) for the entry "CCOC(=O)C1=C[C@@H](C(C)(C)C)N(S(=O)(=O)c2ccc(C)cc2)[C@H]1c1cccc(Cl)c1"
Completion: 0.677
